Each recorded value in this set is attributed to patent US20250074999A1.

Biological target: T1, O-glycosylated LYPD3-STP-ECD (expressed in and purified from NM-F9 cells) (human, UniProt O95274 234-303, O-glycosylated on Ser/Thr by NM-F9 cells: predominantly TF (Galβ1-3GalNAcα1-), lower amounts of Tn)
T1 construct: also called NM-F9-derived LYPD3-STP; STP-rich C-terminal part of the ECD; not shown: fusion partner for purification and detection, e.g. Twin-Strep-tag, MBL or polyhistidine tag; which one and at which end
T1 sequence: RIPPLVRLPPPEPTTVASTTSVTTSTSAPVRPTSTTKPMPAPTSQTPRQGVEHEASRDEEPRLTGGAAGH
Test: ELISA and flow cytometry (FIGS. 14, 15 and 16)
Value type: binding result

21E9-227 (antibody, V domains shown, Humanized 21E9; also called humanized aLYPD3 antibody 21E9-227) VH: QVQLVESGGGLVKPGGSLRLSCAASGFDFSNYYYMCWIRQAPGKGLEWVSCIAAGSGGYTYYASWAKGRFTISRDNAKNSLYLQMNSLRAEDTAVYYCASSGDYKGFNLWGQGTLVTVS VL: AIRIAQSPSSLSASTGDRVTITCQASQSISSYLAWYQQKPGKAPKLLIYGASNLASGVPSRFSGSGSGTDFTLTISCLQSEDFATYYCQGYYYSFSDIFAFGQGTKVEI
binds
21E9-224 (antibody, V domains shown, Humanized 21E9; also called humanized aLYPD3 antibody 21E9-224) VH: EVQLVESGGGLVQPGGSLRLSCAASGFDFSNYYYMCWVRQAPGKGLEWVSCIAAGSGGYTYYASWAKGRFTISRDNSKNTLYLQMNSLRAEDTAVYYCASSGDYKGFNLWGQGTLVTVS VL: EIVMTQSPSSLSASVGDRVTITCQASQSISSYLAWYQQKPGKAPKLLIYGASNLASGVPSRFSGSGSGTDFTLTISSLQPEDFATYYCQGYYYSFSDIFAFGGGTKVEI
binds
21E9-221 (antibody, V domains shown, Humanized 21E9; also called humanized aLYPD3 antibody 21E9-221) VH: EVQLVESGGGLVQPGGSLRLSCAASGFDFSNYYYMCWVRQAPGKGLEWVSCIAAGSGGYTYYASWAKGRFTISRDNSKNTLYLQMNSLRAEDTAVYYCASSGDYKGFNLWGQGTMVTVS VL: DIVMTQSPSSLSASVGDRVTITCQASQSISSYLAWYQQKPGKPPKLLIYGASNLASGVPSRFSGSGSGTDFTLTISSLQPEDVATYYCQGYYYSFSDIFAFGGGTKVEI
binds
